Tested on: HT-29
protocol.description: NCI tumour cell line growth inhibition, 48 h
Active and inactive are the calls of the source. No stated cut-off is given here; in the data, active = GI50 up to about 1.1 µM and inactive = higher. Peptide text beside a SMILES is read from it.
Outcome codes: active, inactive

compound	label.class
CC(C)C(Cl)CC/C(CBr)=C(\Cl)CCl (stereo not drawn)	inactive
COc1cccc(/C=C2\S/C(=N/Nc3nc(C)c(C)s3)NC2=O)c1O	inactive
CC(=O)Nc1ccc(-c2nnc(SCC(=O)Nc3ccc(Cl)cc3)o2)cc1	inactive
COc1ccc(C2OC2C(=O)C23CC4CC(CC(C4)C2)C3)cc1 (stereo not drawn)	inactive
Cc1ccc(NC(=O)COC(=O)c2cccc3c(=O)c4ccccc4[nH]c23)cc1	inactive
CNC(=O)OCc1c2ccncc2c(C)c2c1[nH]c1ccc(OC)cc12	active
Cc1cccc(NC(=S)Nc2ccccc2Cl)n1	inactive
COc1cccc(NC(=O)CC(=O)N2N=C(N3c4ccccc4Sc4ccccc43)CC2c2ccccc2)c1 (stereo not drawn)	inactive
COC(=O)c1cc(C)ccc1C1CN=NC12Cc1cccc(C)c1C2=O (stereo not drawn)	inactive
CCOC(=O)c1cn2c(n1)sc1cc(F)ccc12	inactive
Cc1[nH]c2ccccc2c1C1CC(=O)NC1=O (stereo not drawn)	inactive
Nc1nc(N)c2nc(CNc3ccc(C(=O)NC(CCNC(=O)c4ccccc4C(=O)O)C(=O)O)cc3)cnc2n1 (stereo not drawn)	active
CCCCNC(=O)CCN(C(=O)O)S(=O)(=O)c1ccc(NC(=O)c2ccccc2)cc1	inactive
CC(=O)OC1C[C@@H](C)C2(C[C@H](O)c3ccoc3)C(=O)OC[C@]13C2CCC(O)C31CO1 (stereo partly drawn)	inactive
NS(=O)(=O)c1ccc(NC(=O)c2cccc3c(Nc4ccc(S(N)(=O)=O)cc4)c4ccccc4nc23)cc1	inactive
CCOC(=O)NC(=O)c1cn(CCOCCOC(=O)NCCCCCCNC(=O)OCCOCCn2cc(C(=O)NC(=O)OCC)c(=O)[nH]c2=O)c(=O)[nH]c1=O	inactive
O/N=C1\C=Cc2nn(-c3ccccc3)nc2\C1=N/O	inactive
CC(=O)O[C@H]1CC[C@@]2(C)C(=CC[C@@H]3C2CC[C@]2(C)Nc4nc5ccccc5cc4CC32)C1 (stereo partly drawn)	inactive
O=C1c2cc3c(cc2CC1Br)CCC3 (stereo not drawn)	inactive
C=CCOC(=O)C[C@H](NC(=O)[C@H](Cc1ccc(O)cc1)NCC(F)(F)F)C(=O)OCC=C	inactive
COc1ccc(C2=CN3CCC[C@H]3C=C2c2cc(O)c(OC)c(OC)c2)cc1OC	active
O=C(O)CNS(=O)(=O)c1ccc(NC(=O)c2cccc([N+](=O)[O-])c2)cc1	inactive
CNC(=O)N1CN(c2ccccc2)C2(CCN(Cc3ccccc3)CC2)C1=O	inactive
COc1ccc(/C(CCl)=C(\Nc2ccccc2)c2ccc(OC)c(OC)c2)cc1OC	inactive
CC(=O)n1c2ccccc2c2nc3nc(Oc4ccc(C)cc4)c4ccccc4c3cc21	inactive
CC(=O)[O-].[O-]c1c(Cl)cc(Cl)cc1/C=N/Nc1ccccn1.[Zn+2]	inactive
COc1ccccc1NC(=O)CC(=O)N1N=C(C)C(/N=N/c2ccc(S(N)(=O)=O)cc2)C1=O (stereo not drawn)	inactive
CCC(C)C(NC(=O)C(NC(=O)C(CC(N)=O)NC(=O)CN)C(C)O)C(=O)NC(C(=O)NC(C)C(=O)NC(C(=O)NC(CCC(=O)O)C(=O)NC(CC(C)C)C(=O)NC(CC(=O)O)C(=O)NC(C(=O)NC(Cc1ccc(O)cc1)C(=O)N1CCCC1C(=O)O)C(C)O)C(C)C)C(C)C (stereo not drawn) (H-GNTIVAVELDTYP-OH; configuration not given here)	inactive
Brc1ccc2c(c1)C1=C(CO2)Cc2ccccc2O1	inactive
Cc1cc2c3c([nH]c2c2ccnc(C)c12)CCCC3	inactive
Cc1c(C#N)c(N)n(C2OCC(O)C(O)C2O)c(=S)c1C#N (stereo not drawn)	inactive
CS(=O)(=O)O.[Ag]	inactive
O=C1c2nn(-c3ccccc3)nc2C(c2ccccc2)N1c1ccccc1 (stereo not drawn)	inactive
COC(=O)CCC(NC(=S)N/N=C(\C)c1ccccn1)C(=O)OC (stereo not drawn)	inactive
CC(C)c1[nH]nc(C(N)=O)c1/N=N/N(C)C	inactive
O=C1/C(=C/c2ccc(O)cc2)CCC1CNc1ccccc1 (stereo not drawn)	inactive
CNC1(C(=O)O)CC1	inactive
CC1OC2OC3C(OCC(O)C3O)OC(=O)[C@]34CCC(C)(C)CC3C3=CCC5[C@@]6(C)C[C@H](O)[C@H](OC7OC(CO)C(O)C(O)C7OC7OC(COC(=O)CC(C)(O)CC(=O)OC1C(O)C2O)C(O)C(O)C7O)[C@@](C)(CO)C6CC[C@@]5(C)[C@]3(C)CC4 (stereo partly drawn)	inactive
